# Tested on: HCC 2998
# measurement.description: NCI tumour cell line growth inhibition, 48 h
The source made the active and inactive calls. No stated cut-off is given here; in the data, active = GI50 up to about 1.1 µM and inactive = higher.
property.label: GI50

Exercise: Tell me its GI50 given COc1cc(/C=C2\C(=O)N(c3cccc(NC(C)=O)c3)C(c3ccccc3)S2(=O)=O)cc(OC)c1OC (stereo not given) as the entry.
Solution: > 100 µM (inactive)

Exercise: Tell me its GI50 given O=c1[nH][nH]c(=O)[nH]1 as the entry.
Solution: > 100 µM (inactive)

Exercise: Tell me its GI50 given Cc1nc2c(sc3nc4ccccc4n32)c(=O)[nH]1 as the entry.
Solution: > 100 µM (inactive)

Exercise: Tell me its GI50 given ClC(Cl)=C(Cl)C1(Cl)CC1COCc1ccccc1 (stereo not given) as the entry.
Solution: 31.6 µM (inactive)

Exercise: Tell me its GI50 given Cc1ccc(S(=O)(=O)Nn2c(S)c(C#N)c(-c3ccc([N+](=O)[O-])cc3)c(C#N)c2=O)cc1 as the entry.
Solution: 31.6 µM (inactive)

Exercise: Tell me its GI50 given CCOC(C/N=c1/nc(N(C)C)ss1)OCC as the entry.
Solution: > 77.4 µM (inactive)

Exercise: Tell me its GI50 given Cc1ccc(/N=N/C(=N\NC(=O)c2ccc(C)cc2)c2ccc(N(CCC#N)CCC#N)cc2C)cc1 as the entry.
Solution: 50.2 µM (inactive)

Exercise: Tell me its GI50 given C=CCNC(=S)NNC(=O)c1c(C)nc2sccn12 as the entry.
Solution: > 100 µM (inactive)

Exercise: Tell me its GI50 given O=C(CC(NC(=O)OCc1ccccc1)C(=O)NC1Cc2ccccc2C1=O)OCc1ccccc1 (stereo not given) as the entry.
Solution: > 100 µM (inactive)

Exercise: Tell me its GI50 given COc1ccc(NC(=O)CC(=O)N2N=C(N(CCC#N)c3ccccc3Cl)CC2c2ccccc2)cc1 (stereo not given) as the entry.
Solution: > 100 µM (inactive)

====

# Tested on: SF-295
# measurement.description: NCI tumour cell line growth inhibition, 48 h
Calls of active or inactive are those of the source. Rule as the data show it: active = GI50 up to about 1.1 µM and inactive = higher.
property.label: GI50

Exercise: Tell me its GI50 given Cc1ccccc1N(CCC#N)C1=NN(C(=O)CC(=O)Nc2ccccc2)C(c2ccccc2)C1 (stereo not given) as the entry.
Solution: > 100 µM (inactive)

Exercise: Tell me its GI50 given C/C=C1/CN2CCC34c5ccccc5N(C)C23C2CC1C4(C(=O)OC)C(OC(C)=O)O2 (stereo not given) as the entry.
Solution: > 100 µM (inactive)

Exercise: Tell me its GI50 given O=C(CC(NC(=O)OCc1ccccc1)C(=O)NC1Cc2ccccc2C1=O)OCc1ccccc1 (stereo not given) as the entry.
Solution: > 100 µM (inactive)

Exercise: Tell me its GI50 given CCOC(=O)c1sc2c(c1OC(=O)c1ccccc1)c(=O)n(-c1ccccc1)c(=S)n2-c1ccccc1 as the entry.
Solution: 49.7 µM (inactive)

Exercise: Tell me its GI50 given CC1=N[C@](C)(C2CC3C=CC2C3=O)COC1=O (stereo not given in full) as the entry.
Solution: > 100 µM (inactive)

====

# System: U-251
# measurement.description: NCI tumour cell line growth inhibition, 48 h
The source made the active and inactive calls. No stated cut-off is given here; in the data, active = GI50 up to about 1.1 µM and inactive = higher.
Record form. Attribute: GI50. Fill in for each entry.

Exercise: Tell me its GI50 given CCOC(=O)Nc1cc2ccccc2c(/N=N/c2ccccc2)c1O as the entry.
Solution: 26.5 µM (inactive)

Exercise: Tell me its GI50 given Cc1c(O)c(=O)ccn1CCc1c[nH]c2ccccc12 as the entry.
Solution: 6.55 µM (inactive)

Exercise: Tell me its GI50 given CSc1c(CC(=O)Nc2ccc(Cl)cc2)n(Cc2ccccc2)c2ccccc12 as the entry.
Solution: 11.6 µM (inactive)

Exercise: Tell me its GI50 given COc1ccc(C(=CCC(C)C2CCC3[C@@H]4C(OC(C)=O)CC5CC(OC(C)=O)CC[C@]5(C)C4CC(OC(C)=O)[C@]23C)c2ccc(OC)cc2)cc1 (stereo not given in full) as the entry.
Solution: > 100 µM (inactive)

Exercise: Tell me its GI50 given Cn1cc(NC(=O)[C@H]2CCC(N)=N2)cc1C(=O)NCCC(=N)N as the entry.
Solution: > 100 µM (inactive)
